# assay_procedure: ATG_SREBP_CIS: Attagene CIS-FACTORIAL HepG2 Assay for human Sterol Regulatory Element Binding (SREBP) (AID 2282962)
# condition_label: HepG2 Attagene cis-factorial SREBP reporter, mRNA; actives raise or lower the signal
The source made the active and inactive calls. Rule for the calls: active = hit-call score of the fitted dose curve at least 0.9, where 1 is the maximum; inactive = score below 0.9.
Labels: active, inactive

compound	group_label
C#C[C@]1(O)CC[C@H]2[C@@H]3CCC4=CC(=O)CC[C@]4(C)[C@H]3CC[C@@]21C	inactive
CCCCCCCCCCCCBr	inactive
CC(C)N(C(=O)CCl)c1ccccc1	active
CCCCCCCCCCCCN(C)C	active
O=c1[nH]c(=O)n(Cl)c(=O)n1Cl	inactive
Cc1cc(C)cc(C)c1	inactive
Brc1ccc(Br)cc1	inactive
O=C(NC(=O)c1c(F)cccc1F)Nc1cc(Cl)c(OC(F)(F)C(F)C(F)(F)F)cc1Cl (centres undefined)	inactive
COC(F)(C(F)(F)C(F)(F)F)C(F)(C(F)(F)F)C(F)(F)F (centres undefined)	inactive
CC1(C)[C@H](/C=C2\CCSC2=O)[C@@H]1C(=O)OCc1coc(Cc2ccccc2)c1	inactive
CCOP(=S)(OCC)O/N=C(\C#N)c1ccccc1	inactive
C=CCCl	inactive
CN(C1CCCCC1)C1CCCCC1	inactive
Nc1ccc(-c2ccccc2)cc1	inactive
O=C1C[C@@H]2OCC=C3CN4CC[C@]56c7ccccc7N1[C@H]5[C@H]2[C@H]3C[C@H]46	inactive
CC(C)[C@H](C(=O)OC(C#N)c1cccc(Oc2ccccc2)c1)c1ccc(OC(F)F)cc1 (some centres undefined)	inactive
c1ccc(-c2cccc(-c3ccccc3)c2)cc1	inactive
CCNc1nc(NCC)nc(SC)n1	inactive
Nc1ccc(N)cc1	inactive
O=[N+]([O-])c1ccccc1O	inactive
O=C=Nc1ccc(Cl)cc1	inactive
OC[P+](CO)(CO)CO	inactive
Cc1cccc(N=Nc2ccc(N(C)C)cc2)c1	inactive
CCCCS(=O)(=O)Cl	inactive
O=C(Cl)OCCOCCOC(=O)Cl	inactive
CC(c1ccc(O)cc1)c1ccc(O)cc1	inactive
CC(C)(c1ccc(O)c(-c2ccccc2)c1)c1ccc(O)c(-c2ccccc2)c1	inactive
CCOP(=S)(OCC)SCSc1cc(Cl)ccc1Cl	inactive
CC(C)O.CC(C)O.OCCN(CCO)CCO.OCCN(CCO)CCO.[Ti]	inactive
O=S(=O)(F)C(F)(F)C(F)(F)C(F)(F)C(F)(F)F	inactive
BrCCCCBr	inactive
O=S(=O)(C(Cl)(Cl)Cl)C(Cl)(Cl)Cl	active
ClCc1ccccc1Cl	inactive
CC(C)[C@@H](Nc1ccc(C(F)(F)F)cc1Cl)C(=O)OC(C#N)c1cccc(Oc2ccccc2)c1 (some centres undefined)	inactive
CC(O)(CS(=O)(=O)c1ccc(F)cc1)C(=O)Nc1ccc(C#N)c(C(F)(F)F)c1 (centres undefined)	inactive
CCC(C)(C#N)N=NC(C)(C#N)CC (centres undefined)	inactive
C[As+](C)(C)CC(=O)[O-]	inactive
C=C(C)C(=O)OCCCCOC(=O)C(=C)C	inactive
O=S1(=O)OC(c2cc(Br)c(O)c(Br)c2)(c2cc(Br)c(O)c(Br)c2)c2ccccc21	inactive
N#CS	inactive
CCCCN(CCCC)C(=S)[S-].CCCCN(CCCC)C(=S)[S-].[Ni+2]	inactive
CCCCC(CC)C(=O)Cl (centres undefined)	inactive
C[C@H]1C(=O)O[C@@H]2CCN3CC=C(COC(=O)[C@](C)(O)[C@]1(C)O)[C@H]23	inactive
C=CCc1ccccc1O	inactive
CC(=O)CN(CC(C)=O)N=O	inactive
Fc1cccc(Cl)c1CCl	inactive
CCCCCCCCCCCCOS(=O)(=O)O	inactive
COc1ccccc1N	inactive
Cc1cc(C(F)(C(F)(F)F)C(F)(F)F)ccc1NC(=O)c1cccc(I)c1C(=O)NC(C)(C)CS(C)(=O)=O	inactive
[F][Sn]([c]1ccccc1)([c]1ccccc1)[c]1ccccc1	inactive
ClCCCCl	inactive
CN(C)[C@@H]1C(=O)C(C(N)=O)=C(O)[C@@]2(O)C(=O)C3=C(O)c4c(O)ccc(Cl)c4[C@@](C)(O)[C@H]3C[C@@H]12	inactive
CC(=O)C(F)(F)C(F)(F)F	inactive
C#CCOC(=O)/C=C(C)/C=C/CC(C)CCCC(C)C (centres undefined)	inactive
